- TESTED TARGET: T1, hu_CXCR2_N-term (1-17)-BSA (human; bovine, coupled to carrier protein BSA; C-terminal cysteine introduced to enable coupling)
- T1 construct: Synthetic linear peptide chemically coupled to the carrier; also called CXCR2_aa1-17_BSA; CXCR2 aa1-17 BSA
- T1 sequence (P02769 25-607 limits assumed): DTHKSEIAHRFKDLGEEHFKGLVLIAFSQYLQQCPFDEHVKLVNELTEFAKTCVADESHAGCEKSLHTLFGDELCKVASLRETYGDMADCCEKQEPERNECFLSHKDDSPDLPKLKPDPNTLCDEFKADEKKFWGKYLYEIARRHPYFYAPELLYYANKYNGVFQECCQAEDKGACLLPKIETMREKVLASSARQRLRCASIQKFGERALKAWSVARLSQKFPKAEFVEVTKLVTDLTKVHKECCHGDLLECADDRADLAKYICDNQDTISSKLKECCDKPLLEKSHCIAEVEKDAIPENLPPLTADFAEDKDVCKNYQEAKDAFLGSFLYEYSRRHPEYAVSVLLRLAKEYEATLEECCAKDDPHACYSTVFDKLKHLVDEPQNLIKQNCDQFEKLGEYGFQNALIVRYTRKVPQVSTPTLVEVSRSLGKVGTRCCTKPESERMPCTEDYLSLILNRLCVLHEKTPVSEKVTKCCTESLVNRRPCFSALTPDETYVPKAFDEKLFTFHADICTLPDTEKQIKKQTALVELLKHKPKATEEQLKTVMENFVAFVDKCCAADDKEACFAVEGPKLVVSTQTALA
- EXPERIMENTAL PROTOCOL: ELISA, coated peptide-BSA, IgG1
OBSERVABLE: binding result

BINDER	OBSERVABLE	ASSAY VALUE
CX2-Mab #1.2 (antibody, IgG1, V domains shown) VH: QVQLVQSGAEVKKPGSSVKVSCKASGGTFSSYAISWVRQAPGQGLEWMGGIIPIVGEAKYAQKFQGRVTITADESTSTAYMELSSLRSEDTAVYYCARDSSGYDGYYAFAYWGQGTQVTVSS VL: DIVLTQPPSVSGAPGQRGTISCSGSSSNIGSSSVNWYQQLPGTAPKLLIYRNNQRPSGVPDRFSGSKSGTSASLAITGLQAEDEADYYCATADQRGIVFGGGTKLTVLG	binding result	binds
CX2-Mab #1.5 (antibody, IgG1, V domains shown) VH: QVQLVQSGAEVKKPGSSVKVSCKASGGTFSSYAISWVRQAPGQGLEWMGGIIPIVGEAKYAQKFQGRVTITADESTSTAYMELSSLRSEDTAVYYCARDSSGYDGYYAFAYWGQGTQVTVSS VL: DIVLTQPPSVSGAPGQRGTISCSGSSSNIGSSSVNWYQQLPGTAPKLLIYRNNQRPSGVPDRFSGSKSGTSASLAITGLQAEDEADYYCASTDSQWRQIVFGGGTKLTVLG	binding result	binds

Measured values drawn from patent US20160060347A1 for this set.
